Cited source for all entries: patent US20240148821A1

measurement.target: protein-protein interaction between Kras and SOS1 (biotin-tagged human Kras loaded with GDP, His-tagged human SOS1) (Homo sapiens (Human), UniProt P01116, G12D)
run.description: Protein-protein interaction inhibition between Kras and SOS1 (KrasG12D-SOS PPI) using AlphaScreen;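 further: kras produced in E. coli, Ni-coupled donor beads and streptavidin acceptor beads, excitation 680 nm with emission detected at 520–620 nm via singlet oxygen transfer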
Type: biochemical
run.conditions: AlphaScreen; biotin-tagged human Kras loaded with GDP, His-tagged human SOS1; read-out: KRAS G12D-SOS PPI IC50
Bridge positions count the residues as written; N and C are the ends. Square brackets hold non-standard residues; d marks the D form. Peptide text beside a SMILES is read from it. * marks the point of attachment. hPhe(3-Cl-4-CF3) = N[C@@H](CCc1ccc(C(F)(F)F)c(Cl)c1)C(=O)O; NMeCha = CN[C@@H](CC1CCCCC1)C(=O)O; NMeI = CC[C@H](C)[C@H](NC)C(=O)O; NMeD = CN[C@@H](CC(=O)O)C(=O)O; NMeL = CN[C@@H](CC(C)C)C(=O)O; Morpholide = C1CN(*)CCO1; NMeA = CN[C@@H](C)C(=O)O; Ac5c = NC1(C(=O)O)CCCC1; Aze = O=C(O)[C@@H]1CCN1; Sar = CNCC(=O)O
result.type: IC50 (pM)
Provide the reading as a plain figure in pM.

Entry CC[C@H](C)[C@@H]1NC(=O)[C@H](CC(C)C)N(C)C(=O)C[C@@H](C(=O)N2CCOCC2)N(C)C(=O)[C@H]([C@@H](C)CC)N(C)C(=O)C2(CCCC2)NC(=O)[C@@H]2CCCN2C(=O)[C@H](CCc2ccc(C(F)(F)F)c(Cl)c2)NC(=O)CN(C)C(=O)[C@H](CC2CCCCC2)N(C)C(=O)[C@@H]2CCN2C(=O)[C@H](C)N(C)C1=O [Compound 40] ([NMeL]I[NMeA][Aze][NMeCha][Sar][hPhe(3-Cl-4-CF3)]P[Ac5c][NMeI][NMeD]-Morpholide; lactam N-11) : reported IC50 = ?
960
